System: MDA-N
Test: NCI tumour cell line growth inhibition, 48 h
Readout kind: TGI

The reported value for C[C@]12CC[C@@H]3c4ccc(O)cc4CC[C@H]3[C@@H]1C/C(=C\c1ccc(C#N)cc1)C2=O in terms of TGI is > 100 µM

TGI reported for this compound CC1(C)N=C2C(=O)c3c([nH]c4ccccc34)[C@]3(C)CCC1CC23 (stereo partly specified) : > 6.25 µM

TGI measured on O=C(CC(C(=O)c1ccco1)c1ccco1)c1ccco1 (stereo unspecified) = > 100 µM

// sample COc1ccc(NC(C)c2ccncc2)cc1 (stereo unspecified) , its TGI was > 100 µM

The reported TGI of the compound O=c1c2ccccc2sc2ccccc12 was > 100 µM

Reported TGI of COc1nc2c(N3CCCC3)nc(N3CCNCC3)nc2nc1NCc1ccccc1 : 2.45 µM

====

Tested on: HCT-116 colon
Experiment: NCI tumour cell line growth inhibition, 48 h; in the data active = GI50 below about 0.43 µM; inactive = the rest
In this exercise, the only acceptable responses are 1.0 (active), 0.0 (inactive)

Prompt: Recorded test outcome, item COc1ccc(-c2cnoc2-c2cc(OC)c3c(c2)OCCO3)cc1
Completion: 1.0

Prompt: I would be grateful if you could indicate the recorded call for CCNCCNc1cc(-c2ccc(C#N)cc2)c(C#N)c2nc3ccccc3n12 .
Completion: 0.0

Prompt: Tell me the recorded outcome of this test for CC(=Nc1ccc(S(N)(=O)=O)cc1)c1c(O)[nH]c2ccccc12 .
Completion: 0.0

Prompt: Each compound tested received a call. Report the one for O=C1c2ccccc2-c2c1c1c(NCCCO)nc3ccccc3c1n2Cc1ccccc1 .
Completion: 0.0

Prompt: Recorded test outcome, item COc1ccc(C2=C(N3CCc4ccccc43)C(=O)NC2=O)cc1
Completion: 0.0

Prompt: Which outcome did this test record for the compound CCCCCCCCCCCCCC[n+]1cccc(C(N)=O)c1 ?
Completion: 0.0

Prompt: For O=C(NCCN1CCNCC1)c1ccc(Nc2nc3ccccc3c3occc23)cc1 , which call appears in the assay record?
Completion: 0.0

Prompt: Hi, sorry to bother you, what did the test record for C/C1=C\CC[C@@](C)(O)[C@@H]2C[C@H](CC/C(C)=C/CC1)C1(CC1)C(=O)O2 ?
Completion: 0.0

Prompt: Assay outcome for CC(C)Oc1ccc(C(=O)Cn2ccnc2)cc1-n1c(CN2CCN(C(=O)COc3ccc(Cl)cc3)CC2)nc2ccccc2c1=O : what was it?
Completion: 0.0

Prompt: I would be grateful if you could indicate the recorded call for c1ccc(-c2nc(N3CCCNCC3)c3nc(-c4ccccc4)oc3n2)cc1 .
Completion: 0.0

Prompt: Hi, do you know how CCOC(=O)N1CCN(CCCCCOc2ccccc2C2CCCCC2)CC1 came out in this test?
Completion: 0.0

Prompt: For COc1ccc(Nc2nccc(N3CCN(c4c5ccc(Cl)cc5nc5ccc(OC)cc45)CC3)n2)cc1 , which call appears in the assay record?
Completion: 0.0

Prompt: For this compound, state the assay outcome: Fc1ccc2nc(-c3cc(-c4ccc5c(c4)OCO5)n[nH]3)[nH]c2c1
Completion: 0.0

Prompt: Please indicate how the test categorized CCN(CC)c1ccc(/C=C/C2=[N+](C)c3ccccc3C2(C)C)c(C)c1 .
Completion: 1.0

====

Provide the recorded TGI for the entries that follow.
Test system: SNB-78 CNS
Test: NCI tumour cell line growth inhibition, 48 h
Note: unit µM is implicit; provide only the numeric part.

Input CCCCCCCCCCCCCCCCCCOCC(COCCOCC[N+]1(CCCCCC(=O)[O-])CCCC1)Oc1ncccn1 (configuration not stated) . Output TGI: 4.52

Record C=C1C(=O)C23C(O)C1CC[C@H]2C12CCCC(C)(COC(C)=O)[C@H]1[C@H](O)[C@]3(O)OC2 (some centres not stated) . Reported TGI: 2.96

Just so you know, measured TGI for Cc1ccccc1/C=C/C(=O)c1ccccc1 came out at 39.2

The recorded TGI for Cc1c(C(=O)/C=C/c2ccccc2[N+](=O)[O-])[n+](=O)c2ccccc2n1[O-] is 70.7

# TGI of O=S1CSSC1 = 62
